molecular target: T1, human PD-L1 (hPD-L1) expressed on transfected 300.19 cells (human, UniProt Q9NZQ7 19-290); assay: FACS, hPD-L1 300.19 cells, assay 1, Ab 0.01 ug/ml
T1 construct: whole, on cells; also called B7H1
T1 sequence (Q9NZQ7 19-290): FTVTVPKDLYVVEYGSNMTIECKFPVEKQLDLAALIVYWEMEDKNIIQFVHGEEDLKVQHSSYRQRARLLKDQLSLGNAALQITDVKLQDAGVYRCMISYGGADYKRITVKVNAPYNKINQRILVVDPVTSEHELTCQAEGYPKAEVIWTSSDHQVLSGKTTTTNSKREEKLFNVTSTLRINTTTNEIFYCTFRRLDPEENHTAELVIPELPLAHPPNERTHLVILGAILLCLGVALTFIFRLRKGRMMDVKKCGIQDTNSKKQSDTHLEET
Simple rule here: Cells PE-A Mean less than 2000 MFI is condition met, otherwise condition not met.

INSERT INTO measurements (binder, classification) VALUES
  ('Ab-30 (antibody, V domains shown, also called huPD-L1 Ab # 30) VH: QVQLVQSGGSVVRPGESLRLSCVASGFIFDNYDMSWVRQVPGKGLEWVSRVNWNGGSTTYADAVKGRFTISRDNTKNSLYLQMNNLRAEDTAVYYCVREFVGAYDLWGQGTTVTVSS VL: QSALTQPASVSGSPGQSITISCTGTSSDVGGYNYVSWYQQHPGKAPKLMIYDVSNRPSGVSNRFSGSKSGNTASLTISGLQAEDEADYYCSSYTSSTLPFGGGTKLTVL', 'condition not met'),
  ('Ab-14 (antibody, V domains shown, also called huPD-L1 Ab # 14) VH: QVQLVQSGAEVKKPGASVKVSCKASGYTFTSYGISWVRQAPGQGLEWMGWISAYNGNTNYAQKLQGRVTMTTDTSTSTAYMELRSLRSDDTAVYYCARALPSGTILVGGWFDPWGQGTLVTVSS VL: NFMLTQPHSVSESPGKTVTISCTRSSGNIASNYVQWYQQRPGSAPTTVIYEDNQRPSGVPDRFSGSIDSSSNSASLTISGLKTEDEADYYCQSYDSSNLWVFGGGTKLTVL', 'condition met'),
  ('Ab-55 (antibody, V domains shown, also called huPD-L1 Ab # 55) VH: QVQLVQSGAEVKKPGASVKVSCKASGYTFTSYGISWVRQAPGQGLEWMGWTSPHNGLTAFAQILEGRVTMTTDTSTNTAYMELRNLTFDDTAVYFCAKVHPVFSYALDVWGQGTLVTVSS VL: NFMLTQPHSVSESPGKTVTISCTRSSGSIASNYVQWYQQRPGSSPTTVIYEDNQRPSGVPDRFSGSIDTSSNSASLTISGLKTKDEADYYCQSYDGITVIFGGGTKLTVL', 'condition met'),
  ('Ab-42 (antibody, V domains shown, also called huPD-L1 Ab # 42; mAb42) VH: QVQLVQSGAEVKKPGSSVKVSCKASGGTFSSYAISWVRQAPGQGLEWMGGIIPIFGTANYAQKFQGRVTITADKSTSTAYMELSSLRSEDTAVYYCARGRQMFGAGIDFWGPGTLVTVSS VL: NFMLTQPHSVSESPGKTVTISCTRSSGSIDSNYVQWYQQRPGSAPTTVIYEDNQRPSGVPDRFSGSIDSSSNSASLTISGLKTEDEADYYCQSYDSNNRHVIFGGGTKLTVL', 'condition not met'),
  ('Ab-31 (antibody, V domains shown, also called huPD-L1 Ab # 31) VH: QVQLVQSGAEVKKPGATVKVSCKVFGDTFRGLYIHWVRQAPGQGLEWMGGIIPIFGTANYAQKFQGRVTITTDESTSTAYMELSSLRSEDTAVYYCASGLRWGIWGWFDPWGQGTLVTVSS VL: EIVLTQSPATLSLSPGERATLSCRASQSIGNSLAWYQQKPGQAPRLLMYGASSRATGIPDRFSGSGAGTDFTLTISSLEPEDFATYYCQQHTIPTFSFGPGTKVEVK', 'condition not met'),
  ('Ab-50 (antibody, V domains shown, also called huPD-L1 Ab # 50) VH: QVQLVQSGGEVKKPGASVKVSCKASGYTLSSHGITWVRQAPGQGLEWMGWISAHNGHASNAQKVEDRVTMTTDTSTNTAYMELRSLTADDTAVYYCARVHAALYYGMDVWGQGTLVTVSS VL: QSVLTQPPSVSVAPGQTARITCGGNNIGSKGVHWYQQKPGQAPVLVVYDDSDRPSGIPERFSGSNSGNTATLTISRVEAGDEADYYCQVWDSSSDHWVFGGGTKLTVL', 'condition not met'),
  ('Ab-52 (antibody, V domains shown, also called huPD-L1 Ab # 52) VH: QVQLQESGGGVVQPGRSLRLSCSASGFTFSRHGMHWVRQAPGKGLEWVAVISHDGSVKYYADSMKGRFSISRDNSNNTLYLQMDSLRADDTAVYYCARGLSYQVSGWFDPWGQGTLVTVSS VL: NFMLTQPHSVSESPGKTVTISCTRSSGSIASNYVQWYQQRPGSAPTTVIYEDNQRPSGVPDRFSGSIDSSSNSASLTISGLKTEDEADYYCQSYDSTTPSVFGGGTKLTVL', 'condition met');
